Data credit: ChEMBL document CHEMBL1914393

test system: Mycobacterium tuberculosis; experiment: Antimicrobial activity against Mycobacterium tuberculosis H37Rv in GASTD medium supplemented with 100 uM FeCl3 after 10 days by spectrophotometric analysis; type: functional, organism-based; settings: 240 h
Measured MIC90 by item
PROPERTY_LABEL: MIC90

1) O=C(c1ccncc1)N1N=C(c2ccccc2O)C[C@H]1c1ccc(O)cc1 > 4 µM
2) NC(=S)N1N=C(c2ccccc2O)C[C@H]1c1ccccc1O 125 µM
3) NC(=O)N1N=C(c2ccccc2O)C[C@H]1c1ccccc1O 104 µM
4) CSC(=S)N/N=C/c1ccc(O)cc1 59 µM
5) O=C(NO)N/N=C/c1ccc(O)cc1 97 µM
6) O=S(=O)(c1ccccc1)N1N=C(c2ccccc2O)C[C@H]1c1ccccc1O > 31 µM
7) Cc1ccc(S(=O)(=O)N2N=C(c3ccccc3O)C[C@H]2c2ccc(O)cc2)cc1 > 31 µM
8) CSC(=S)N/N=C(\C)c1ccccc1O 9 µM

----------
system: Yersinia pestis; experiment: Antimicrobial activity against Yersinia pestis KIM6-2082.1+ in PMHD medium after 26 hrs by spectrophotometric analysis; type: functional, organism-based
pIC50: −log10 of the molar value.
PROPERTY_LABEL: pIC50

1) O=C(c1ccncc1)N1N=C(c2ccccc2O)C[C@H]1c1ccc(O)cc1 < 5.10
2) N=C(N)N1N=C(c2ccccc2O)C[C@H]1c1ccccc1O 5.15
3) NC(=S)N1N=C(c2ccccc2O)C[C@H]1c1ccccc1O 3.74
4) NC(=O)N1N=C(c2ccccc2O)C[C@H]1c1ccccc1O < 3.60
5) O=C(NO)N/N=C/c1ccc(O)cc1 < 3.60
6) N=C(NO)N/N=C/c1ccc(O)cc1 < 3.30
7) O=C(NO)N1N=C(c2ccccc2O)C[C@H]1c1ccc(O)cc1 4.89
8) O=C(NO)N/N=C/c1ccccc1O < 4.80
9) O=C(c1ccccc1)N1N=C(c2ccccc2O)C[C@H]1c1ccc(O)cc1 < 4.51
10) Cc1ccc(S(=O)(=O)N2N=C(c3ccccc3O)C[C@H]2c2ccccc2O)cc1 < 4.51
11) O=S(=O)(c1ccccc1)N1N=C(c2ccccc2O)C[C@H]1c1ccc(O)cc1 < 4.80
12) Oc1ccccc1C1=NN[C@H](c2ccccc2O)C1 5.05

----------
tested on: Mycobacterium tuberculosis; test: Antimicrobial activity against Mycobacterium tuberculosis H37Rv in GASTD medium after 10 days by spectrophotometric analysis; type: functional, organism-based; settings: 240 h
PROPERTY_LABEL: IC50 (µM)

1. O=C(NO)N/N=C/c1ccc(O)cc1 97
2. NNC(=O)c1ccncc1 0.07
3. CSC(=S)N/N=C/c1ccc(O)cc1 31

----------
Measured pIC50 by item
test system: Yersinia pestis; assay: Antimicrobial activity against Yersinia pestis KIM6-2082.1+ in PMHD medium after 26 hrs by spectrophotometric analysis; assay type: functional, organism-based
pIC50: −log10 of the molar value.
PROPERTY_LABEL: pIC50

1) CC(=O)N1N=C(c2ccccc2O)C[C@H]1c1ccc(O)cc1 < 4.80
2) C/C(=N\NC(=O)NO)c1ccccc1O < 5.40
3) CSC(=S)N/N=C(\C)c1ccccc1O 4.21

----------
system: Mycobacterium tuberculosis; experiment: Antimicrobial activity against Mycobacterium tuberculosis H37Rv in GASTD medium supplemented with 100 uM FeCl3 after 10 days by spectrophotometric analysis; format: functional, organism-based; settings: 240 h
Measured MIC90 by item
PROPERTY_LABEL: MIC90

1. O=C(NO)N1CCN(C(=S)N/N=C/c2ccccc2O)CC1 > 8 µM
2. Cc1ccc(S(=O)(=O)N2N=C(c3ccccc3O)C[C@H]2c2ccccc2O)cc1 > 31 µM
3. C/C(=N\NC(=O)NO)c1ccccc1O > 8 µM
4. O=C(NO)N1N=C(c2ccccc2O)C[C@H]1c1ccccc1O > 31 µM
5. O=C(NO)N1N=C(c2ccccc2O)C[C@H]1c1ccc(O)cc1 > 31 µM
6. O=C(NO)N/N=C/c1ccccc1O > 16 µM
7. Oc1ccccc1C1=NN[C@H](c2ccccc2O)C1 59 µM
8. CC(=O)N1N=C(c2ccccc2O)C[C@H]1c1ccc(O)cc1 > 8 µM
9. CC(=O)N1N=C(c2ccccc2O)C[C@H]1c1ccccc1O > 16 µM
10. O=S(=O)(c1ccccc1)N1N=C(c2ccccc2O)C[C@H]1c1ccc(O)cc1 > 31 µM

----------
test system: Mycobacterium tuberculosis; test: Antimicrobial activity against Mycobacterium tuberculosis H37Rv in GASTD medium after 10 days by spectrophotometric analysis; type: functional, organism-based; conditions: 240 h
PROPERTY_LABEL: IC50

1. NC(=O)N1N=C(c2ccccc2O)C[C@H]1c1ccc(O)cc1 > 63 µM
2. C/C(=N\NC(=O)NO)c1ccc(O)cc1 > 500 µM
3. O=C(NO)N/N=C/c1ccccc1O > 16 µM
4. O=C(c1ccccc1)N1N=C(c2ccccc2O)C[C@H]1c1ccc(O)cc1 > 63 µM
